Source of measurements: the Immune Epitope Database (IEDB)

Measured IC50, listed per entry for reference.
Molecular target: HLA-A*02:01
Test: IEDB peptide-MHC binding, purified MHC/competitive/radioactivity; bounds were set here for any values at or beyond the usual limits of such assays
Settings: source organism: Trypanosoma cruzi
readout.name: IC50 (nM)

[
  {
    "sequence": "RVSRPTTVV",
    "test.value": 2490
  },
  {
    "sequence": "ELLRPTTLV",
    "test.value": 2410
  },
  {
    "sequence": "FVDYNFSLV",
    "test.value": 1.1
  },
  {
    "sequence": "RLLPSLLLLL",
    "test.value": 0.8
  },
  {
    "sequence": "FANNKFTLV",
    "test.value": 116
  },
  {
    "sequence": "GLLPSLLLLL",
    "test.value": 3.1
  },
  {
    "sequence": "FVNYNFTLV",
    "test.value": 0.25
  }
]
